Test system: C2C12 (NDUFB8-AcGFP / COX8A-DsRed-Monomer FRET reporter)
Experiment: cFRET/donor change relative to DMSO, normalised to beta-lapachone positive control (supercomplex I-IV assembly) (fraction of beta-lapachone effect); higher = more respiratory supercomplex assembly
Conditions: 40 µM; 24 h
Structures can show the parent of a compound that is named as a salt. The full ranking holds about 1,000 compounds; the median of “cFRET/donor change relative to DMSO, normalised to beta-lapachone positive control (supercomplex I-IV assembly)” is about 0.18, and the lowest 2% start at about -1. The list comes from a sample in which the lowest values are over-represented; it also holds close analogues and randomly drawn compounds.
We use 0.08 as the dividing line for cFRET/donor change: on or above the line is true (1), below is false (0).

These recorded examples may help you get a feel for the data.
- COMPOUND: "CN1CCN(CCCN2c3ccccc3Sc3ccc(C(F)(F)F)cc32)CC1 [Trifluoperazine dihydrochloride]"
  CATEGORY: "true (1)"
- COMPOUND: "C=CC1=C(C)c2cc3[nH]c(cc4nc(cc5[nH]c(cc1n2)c(C)c5CCC(=O)O)C(CCC(=O)O)=C4C)c(C)c3C=C [Protoporphyrin IX disodium]"
  CATEGORY: "true (1)"
- COMPOUND: "CCOc1ncc(S(=O)(=O)N2CCN(CC)CC2)cc1-c1nc(=O)c2nn(CCOC)c(CC)c2[nH]1 [Gisadenafil besylate salt]"
  CATEGORY: "false (0)"

Qu. # check: cFRET/donor change of N=c1ccn2c(n1)O[C@H]1[C@H](O)[C@@H](CO)O[C@H]12 [Ancitabine hydrochloride] is greater than or equal to 0.08
Ans. false (0)

Qu. # check: cFRET/donor change of O=C(CCSCc1ccco1)NNC(=O)N1Cc2ccccc2Oc2ccc(Cl)cc21 is greater than or equal to 0.08
Ans. true (1)

Qu. # check: cFRET/donor change of NCCCCN [Putrescine dihydrochloride] is greater than or equal to 0.08
Ans. false (0)

Qu. # check: cFRET/donor change of COc1cc2nc(N(C)CCCNC(=O)C3CCCO3)nc(N)c2cc1OC (configuration not stated) [Alfuzosin hydrochloride] is greater than or equal to 0.08
Ans. false (0)

----------
Tested on: C2C12 (NDUFB8-AcGFP / COX8A-DsRed-Monomer FRET reporter)
Experiment: cFRET/donor change relative to DMSO, normalised to beta-lapachone positive control (supercomplex I-IV assembly) (fraction of beta-lapachone effect); higher = more respiratory supercomplex assembly
Conditions: 40 µM; 24 h
Counter-ions that a name gives are not always drawn. In all, about 1,000 compounds were measured (“cFRET/donor change relative to DMSO, normalised to beta-lapachone positive control (supercomplex I-IV assembly)”: median about 0.18, lowest 2% from about -1 on). Shown is part of a subset that was picked to be rich in the lowest values.
We use 0.2 as the dividing line for cFRET/donor change: on or above the line is yes (1), below is no (0).

These recorded examples may help you get a feel for the data.
- COMPOUND: "CCCCc1ncc(/C=C(\\Cc2cccs2)C(=O)O)n1Cc1ccc(C(=O)O)cc1 [Eprosartan mesylate]"
  CATEGORY: "no (0)"
- COMPOUND: "O=C(Nc1ccc2[nH]ncc2c1)C1CCC1"
  CATEGORY: "no (0)"
- COMPOUND: "Nc1nc2ccc(Cl)cc2n2c(-c3ccccc3)nnc12"
  CATEGORY: "no (0)"
- COMPOUND: "Nc1nc2ccc(Cl)cc2c2nc(-c3ccco3)nn12"
  CATEGORY: "no (0)"
- COMPOUND: "C=C1C(=O)O[C@H]2[C@H]1CC/C(C)=C/CC[C@@]1(C)O[C@@H]21 [Parthenolide]"
  CATEGORY: "yes (1)"
- COMPOUND: "CC(C(O)c1ccc(O)cc1)N1CCC(Cc2ccccc2)CC1 (stereo not drawn) [Ifenprodil tartrate]"
  CATEGORY: "yes (1)"

Qu. # check: cFRET/donor change of NC(C(=O)O)C(O)C(=O)O (racemic) [DL-threo-beta-hydroxyaspartic acid] is greater than or equal to 0.2
Ans. no (0)

Qu. # check: cFRET/donor change of CNS(=O)(=O)CCc1ccc2[nH]cc(C3CCN(C)CC3)c2c1 [Naratriptan hydrochloride] is greater than or equal to 0.2
Ans. yes (1)

Qu. # check: cFRET/donor change of CC(C)[C@H](N)C(=O)OCC(CO)OCn1cnc2c(=O)[nH]c(N)nc21 (stereo partly drawn) [Valganciclovir hydrochloride hydrate] is greater than or equal to 0.2
Ans. no (0)

Qu. # check: cFRET/donor change of c1ccc(C(NCCNC(c2ccccc2)c2ccccc2)c2ccccc2)cc1 is greater than or equal to 0.2
Ans. no (0)

Qu. # check: cFRET/donor change of Cc1cc2c(cc1Cl)N(C(=O)Nc1ccc(Oc3cccnc3C)nc1)CC2 is greater than or equal to 0.2
Ans. no (0)

Qu. # check: cFRET/donor change of C[C@@H](O)[C@H]1C(=O)N2C(C(=O)O)=C(SCCNC=N)C[C@H]12 [Imipenem monohydrate] is greater than or equal to 0.2
Ans. yes (1)

Qu. # check: cFRET/donor change of COc1ccc(S(=O)(=O)Nc2nc(-c3cccc([N+](=O)[O-])c3)cs2)cc1OC is greater than or equal to 0.2
Ans. yes (1)

Qu. # check: cFRET/donor change of O=C(O)/C=C/c1cnc[nH]1 is greater than or equal to 0.2
Ans. no (0)

Qu. # check: cFRET/donor change of O=C1OC(=O)[C@H]2[C@@H]1[C@@H]1CC[C@H]2O1 is greater than or equal to 0.2
Ans. yes (1)

Qu. # check: cFRET/donor change of CCCCS(=O)(=O)N[C@@H](Cc1ccc(OCCCCC2CCNCC2)cc1)C(=O)O [Tirofiban hydrochloride monohydrate] is greater than or equal to 0.2
Ans. no (0)

Qu. # check: cFRET/donor change of Nc1ccc(-c2ccc3ccccc3n2)cc1 [BF-170 hydrochloride] is greater than or equal to 0.2
Ans. no (0)

Qu. # check: cFRET/donor change of CCOC(=O)c1ccc(C#Cc2ccc3c(c2)C(C)(C)CCS3)nc1 is greater than or equal to 0.2
Ans. yes (1)
